Please go through the items and note down their percentage damage caused to the plant, IPOHE.
tested on: Ipomoea hederacea (IPOHE); test: Pre-emergence herbicide glasshouse test; assay type: in vivo; conditions: 250 g/ha, evaluated after 13 days, five-point scale

The measured percentage damage caused to the plant, IPOHE associated with FC(F)(F)c1nc(CCC2CCCCC2)c2c(Oc3ncc(Cl)cn3)cccc2n1 reads 1 (1=0-20%)

C=CCCc1nc(C(F)(F)F)nc2cccc(Oc3ncc(Cl)cn3)c12 yielded percentage damage caused to the plant, IPOHE of 1 (1=0-20%)

The compound FC(F)(F)c1nc(CC=NOCC2CC2)c2c(Oc3ncc(Cl)cn3)cccc2n1 showed percentage damage caused to the plant, IPOHE equal to 1 (1=0-20%)

For this compound ( CON=C(C)c1nc(C(F)(F)F)nc2cccc(Oc3ncc(Cl)cn3)c12 ), measured percentage damage caused to the plant, IPOHE is 1 (1=0-20%)
